Data origin, for the record: the supplement of paper PMC9112550

test system: Escherichia coli TOP10; experiment: shrunken log2 fold change of peptide-encoding DNA abundance (4.5 h post-induction vs induction); higher = less antimicrobial activity (less host growth inhibition); conditions: time post-induction: 4.5 h; library: site-saturation at positions 5, 18, 19, 20;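 further: peptides expressed intracellularly from a pBAD plasmid library in pooled LB shake-flask culture, induced with 0.3% L-arabinose, DNA abundance read by NGS, three biological replicates, DESeq2 with apeglm shrinkage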
Heads up, the class ranges for shrunken log2 fold change are lowest = under -0.1, middle = from -0.1 up to 0.2, highest = 0.2 and over

1. RRIRLRPPRLPRPRPRPMRTPRP : highest
2. RRIRKRPPRLPRPRPRPRGDPRP : highest
3. RRIRARPPRLPRPRPRPLPTPRP : highest
4. RRIRQRPPRLPRPRPRPIMPPRP : lowest
5. RRIRMRPPRLPRPRPRPFSEPRP : highest
6. RRIRDRPPRLPRPRPRPATRPRP : highest
7. RRIRGRPPRLPRPRPRPRNGPRP : highest
8. RRIRRRPPRLPRPRPRPCAGPRP : highest
9. RRIRRRPPRLPRPRPRPDRFPRP : highest
10. RRIRYRPPRLPRPRPRPFFEPRP : lowest
11. RRIRFRPPRLPRPRPRPDNIPRP : lowest
12. RRIRNRPPRLPRPRPRPWSDPRP : middle
13. RRIRPRPPRLPRPRPRPDMDPRP : lowest
14. RRIRIRPPRLPRPRPRPPNMPRP : lowest
15. RRIRDRPPRLPRPRPRPRGQPRP : middle
16. RRIRVRPPRLPRPRPRPVNFPRP : middle
17. RRIRCRPPRLPRPRPRPTCYPRP : lowest
18. RRIRVRPPRLPRPRPRPEITPRP : lowest
19. RRIRTRPPRLPRPRPRPPDFPRP : middle
20. RRIRSRPPRLPRPRPRPKVHPRP : lowest
21. RRIRGRPPRLPRPRPRPANEPRP : middle
22. RRIRMRPPRLPRPRPRPRAHPRP : highest
23. RRIRRRPPRLPRPRPRPKSMPRP : middle
24. RRIRLRPPRLPRPRPRPSQHPRP : lowest
25. RRIRSRPPRLPRPRPRPYLTPRP : lowest
26. RRIRGRPPRLPRPRPRPSPIPRP : highest
27. RRIRERPPRLPRPRPRPRHDPRP : lowest
28. RRIRIRPPRLPRPRPRPRCIPRP : lowest
29. RRIRVRPPRLPRPRPRPFVFPRP : middle
30. RRIRMRPPRLPRPRPRPCKKPRP : middle
31. RRIRFRPPRLPRPRPRPWRFPRP : highest
32. RRIRHRPPRLPRPRPRPERTPRP : middle
33. RRIRGRPPRLPRPRPRPTGGPRP : highest
34. RRIRGRPPRLPRPRPRPETKPRP : highest
35. RRIRRRPPRLPRPRPRPDVAPRP : highest
36. RRIRARPPRLPRPRPRPPKWPRP : highest
37. RRIRHRPPRLPRPRPRPKGFPRP : middle
38. RRIRIRPPRLPRPRPRPQWFPRP : middle
39. RRIRDRPPRLPRPRPRPMMIPRP : middle
40. RRIRSRPPRLPRPRPRPKAEPRP : highest
41. RRIRLRPPRLPRPRPRPKPVPRP : middle
42. RRIRHRPPRLPRPRPRPAPCPRP : highest
43. RRIRWRPPRLPRPRPRPFVGPRP : lowest
44. RRIRNRPPRLPRPRPRPEVKPRP : middle
45. RRIRLRPPRLPRPRPRPDLMPRP : lowest
46. RRIRIRPPRLPRPRPRPGWMPRP : middle
47. RRIRARPPRLPRPRPRPKMLPRP : highest
48. RRIRTRPPRLPRPRPRPGYQPRP : middle
49. RRIRKRPPRLPRPRPRPKWWPRP : highest
50. RRIRERPPRLPRPRPRPGVWPRP : highest
51. RRIRYRPPRLPRPRPRPIKQPRP : middle
52. RRIRQRPPRLPRPRPRPVTEPRP : lowest
53. RRIRYRPPRLPRPRPRPACSPRP : lowest
54. RRIRGRPPRLPRPRPRPQPCPRP : highest
55. RRIRHRPPRLPRPRPRPVYMPRP : lowest
56. RRIRIRPPRLPRPRPRPCCTPRP : lowest
57. RRIRTRPPRLPRPRPRPASQPRP : middle
58. RRIRCRPPRLPRPRPRPMSMPRP : lowest
59. RRIRARPPRLPRPRPRPRMAPRP : highest
60. RRIRKRPPRLPRPRPRPTKFPRP : highest
61. RRIRVRPPRLPRPRPRPQMLPRP : lowest
62. RRIRVRPPRLPRPRPRPHAMPRP : lowest
63. RRIRPRPPRLPRPRPRPVNEPRP : middle
